assayed_system: recombinant full-length PfCSP (Plasmodium falciparum circumsporozoite protein, strain NF54) (Plasmodium falciparum NF54, UniProt P19597)
Sequence (P19597 20-375): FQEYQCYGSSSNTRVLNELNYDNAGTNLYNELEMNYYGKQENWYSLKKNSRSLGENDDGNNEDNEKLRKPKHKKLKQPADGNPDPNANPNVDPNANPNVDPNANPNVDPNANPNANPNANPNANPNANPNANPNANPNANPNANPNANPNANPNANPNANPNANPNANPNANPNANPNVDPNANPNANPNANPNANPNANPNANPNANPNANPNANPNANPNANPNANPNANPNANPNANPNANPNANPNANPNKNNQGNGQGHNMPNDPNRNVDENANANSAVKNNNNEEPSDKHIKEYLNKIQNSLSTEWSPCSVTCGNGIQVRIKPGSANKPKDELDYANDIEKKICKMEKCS

| binder | binding result |
| --- | --- |
| CL-510373 (antibody, V domains shown) VH: QVQLVESGGGVVQPGRSLKLSCAASGFTFSSYGMHWVRQAPGRGLEWVSIIWYDGSNKFYSDSVQGRFTISRDDSKNTLYLQMNSLRAEDTAMYYCAMVANYTISSGAFDIWGHGTMVTVSS VL: DIQMTQSPSTLSASVGDRVTITCRASQSISNWLAWYQQKSGKAPKLLIYKASSLESGVPSRFSGSGSGTEFTLTISSLQPDDFATYFCQQYKTYWTFGQGTKVEIK | binds |
| CL-509025 (antibody, V domains shown) VH: QVQLVESGGGVVQPGRSLRLSCVASGFTFSDYGMHWVRQAPGKGLEWVAVIWYDGTKEFFADSVKGRFTISRDNSKDTLYLQMNSLRAEDTGIYYCATYKWNSHLDYWGQGTLVTVSS VL: EIVLTQSPATLSLSPGERATLSCRASQTISSYLAWYQQKPGQAPRLLIYDASNRATGIPARFSGSGSGTDFTLTISSLEPEDFTVYYCQQRSNWPLTFGGGTKVGIK | binds |
